The following variants are listed with their measured protein stability index values.
B1: TRIM63 (parent)
chain: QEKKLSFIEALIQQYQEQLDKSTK

Variants of: B1
assay info: protein stability index of a GFP-peptide fusion (GPS, HEK-293T) (PSI 1-6); higher = more stable;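 further: lentivirally expressed fusions sorted by FACS into six bins by GFP to DsRed ratio, PSI derived from sequencing read proportions per bin multiplied by bin number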
condition description: c terminus: a fixed tail appended
Give the figure only, with no unit attached.

mutation descriptor: Q13Y
protein stability index: 2.35
--
mutation descriptor: A10P
protein stability index: 3.98

Moving on to the next variant.
Dear colleague, I am looking for the recorded protein stability index of the following variant: A10R
2.53
